This collection of values is drawn from paper PMC9363231.

Tgt: HLA-DRB1*07:01 (Homo sapiens, UniProt P01903+P01911, A100R/A102G/A103Q/D57E/D86V/E43K/F76Y/K127E/L162R/M171V/P40G/Q125H/Q99D/R33Q/R42Y/R54Q/S133A/S66F/T210M/V115G/Y107V/Y59L/Y89S)
Assay Protocol: biochemical
Quantity: pIC50
Scale explanation: pIC50 corresponds to minus log10 of a concentration expressed in moles per litre.

>>> recorded_result("CC[C@H](C)[C@H](NC(=O)[C@H](CC(=O)O)NC(=O)CNC(=O)[C@H](CC(C)C)NC(=O)[C@H](CS)NC(=O)[C@H](CC(=O)O)NC(=O)CNC(=O)[C@H](Cc1ccc(O)cc1)NC(=O)[C@H](CCC(N)=O)NC(=O)[C@H](CCCCN)NC(=O)[C@@H](NC(=O)[C@H](Cc1ccccc1)NC(=O)CNC(=O)[C@H](C)N)[C@@H](C)CC)C(=O)N[C@@H](C)C(=O)O [peptide 167]")
6.13
>>> recorded_result("CC[C@H](C)[C@H](NC(=O)[C@H](Cc1ccccc1)NC(=O)[C@H](CO)NC(=O)[C@H](CCCNC(=N)N)NC(=O)[C@H](CCCCN)NC(=O)[C@H](CO)NC(=O)[C@@H]1CCCN1C(=O)[C@@H](N)CCCCN)C(=O)N[C@@H](CCC(=O)O)C(=O)N[C@@H](CC(=O)O)C(=O)N[C@@H](CC(C)C)C(=O)N[C@@H](CC(C)C)C(=O)N[C@@H](Cc1ccccc1)C(=O)N[C@@H](CC(N)=O)C(=O)N[C@@H](CCCCN)C(=O)O [peptide 163]")
5.71

In the following, a different compound is considered.
**Query** # return recorded pIC50 for input CC(C)[C@H](NC(=O)CNC(=O)[C@H](Cc1ccc(O)cc1)NC(=O)[C@H](CS)NC(=O)[C@H](CCCCN)NC(=O)[C@H](Cc1ccccc1)NC(=O)[C@@H](NC(=O)[C@H](CO)NC(=O)[C@H](Cc1ccccc1)NC(=O)[C@H](CO)NC(=O)[C@H](C)NC(=O)[C@@H](N)CO)[C@@H](C)O)C(=O)N[C@@H](CO)C(=O)N1CCC[C@H]1C(=O)N[C@H](C(=O)O)[C@@H](C)O [peptide 75]
**Result** 6.28
